For each of the compounds below, state its Reversal.
# System: Rattus norvegicus
# assay_notes: Percent reversal of scopolamine-induced amnesia rat at 10 mg/kg po
# Type: functional
Provide only the numeric value, understood in %.

Just so you know, measured Reversal for NC(=O)CN1CC(O)CC1=O (stereo unspecified) [OXIRACETAM] came out at 27

Per the records, this compound ( CC12CCC(=O)N1CC(=O)N2 (stereo unspecified) ) has Reversal equal to 0

Item: O=C1NC2CCC(=O)N2[C@H]1Cc1ccccc1 (stereo partly specified) | Reversal: 0

Record O=C1NC2CCC(=O)N2C1CO (stereo unspecified) , field Reversal: 42

The measured Reversal associated with CC1C(=O)NC2CCC(=O)N21 (racemic) reads 33

Reversal reported for this compound O=C1CN2C(=O)CCCC2N1 (stereo unspecified) : 0

Kindly note the recorded Reversal for NC(=O)C12CCC(=O)N1CC(=O)N2 (stereo unspecified) , which is 0

Recorded result, O=C1CN2C(=O)CCC2N1 (stereo unspecified) [DIMIRACETAM] , Reversal: 60

Record O=C1CN2C(=O)CCC2(C(=O)O)N1 (stereo unspecified) , field Reversal: 33

Measured Reversal of CCOC(=O)C12CCC(=O)N1CC(=O)N2 (stereo unspecified) : 0

Recorded result, NC(=O)CN1C(=O)CN2C(=O)CCC12 (stereo unspecified) , Reversal: 9
